The origin of these recorded values is patent EP0533241A2.

What IC50 was measured for each of the following?
Biological target: uterine OT receptors (Rattus norvegicus, UniProt P70536)
Sequence (P70536 whole entry): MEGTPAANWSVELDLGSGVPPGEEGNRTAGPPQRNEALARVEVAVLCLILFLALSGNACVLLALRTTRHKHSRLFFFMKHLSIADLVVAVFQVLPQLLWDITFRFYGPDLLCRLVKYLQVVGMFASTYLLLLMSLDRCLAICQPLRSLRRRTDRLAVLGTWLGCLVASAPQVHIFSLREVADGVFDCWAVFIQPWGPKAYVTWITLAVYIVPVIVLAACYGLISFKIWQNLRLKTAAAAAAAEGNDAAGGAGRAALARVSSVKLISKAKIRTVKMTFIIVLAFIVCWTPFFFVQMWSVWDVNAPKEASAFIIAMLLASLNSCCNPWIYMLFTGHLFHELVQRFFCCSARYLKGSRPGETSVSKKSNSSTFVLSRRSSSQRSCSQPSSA
# number then unit; no other words

If you can, please state the reported IC50 value of Cc1ccccc1N1CCN(S(=O)(=O)CC23CCC(CC2NC(=O)C(CCS(C)(=O)=O)NC(=O)Cc2c[nH]cn2)C3(C)C)CC1 (centres unmarked) . 1.2 nM

# repeat for Cc1ccccc1N1CCN(S(=O)(=O)CC23CCC(CC2C(=O)O)C3(C)C)CC1 (centres unmarked) 260 nM
